Tested on: Wolbachia pipientis
Assay Comment: Anti-Wolbachia Cell-Based Screen
Format: functional
Parameters: scale not given: in the data most compounds retested in dose-response had high values
Condition: 5 µM
The campaign covered roughly 48,000 compounds. About 13,000 (27%) showed an effect of 50% or more. Some of the results follow.
Property Measured: Percent Effect (%)
Give the value in % but do not write % after it.

Lookup: Percent Effect / Wolbachia pipientis / `CCN(Cc1cccs1)S(=O)(=O)N(C)C(C)C`
15.86

How about CC(C)(C)c1oc(C(N)=O)cc1CN1CCCCC(N)C1 (stereo not given) ?
-6.99

Ok, now `Cc1cc(CN2CCC(C(=O)O)(n3ccc(-c4ccco4)n3)CC2)on1`
185.7

Also need COCCN(Cc1sccc1C)C(=O)C1CCCN(C(N)=O)C1 (stereo not given) , thanks.
10.64

And the next one, `NC(=O)c1cccc(C2CCN(c3ncccn3)CC2)n1` ?
105.7

Continue with `Cc1ccc(F)c(NCC(C)(C)S(C)(=O)=O)c1`
-3.079

Repeat with `CC(C)CCNC(=O)c1cccnc1Oc1cccnc1`
3.255

CC1(C(=O)N2CCN(c3cnccn3)CC2)CNCCO1 (stereo not given) , same question.
114.6

And `O=C(c1ccc(O)c(Cl)c1)N(Cc1ccncc1)C1CC1` ?
5.687

Continue with O=C(C1CC1)N1CCCCCC1C1CCN(c2ncccn2)CC1 (stereo not given)
-21.65

Try this compound next: `CCc1nc(NS(=O)(=O)c2cc(C)c(F)cc2Cl)no1`
-1.735

Query `O=C(O)C1(n2cccn2)CCN(Cc2nc(-c3ccccc3)no2)CC1` next
-13.7

Next: `O=C(Cc1ccc2c(c1)CCO2)Nc1ccc(-n2cncn2)nc1`
-5.052

Then what about the compound `CCN(C)S(=O)(=O)N(CC)Cc1ccc2c(c1)OCO2` ?
0.6799

Okay, and `C[C@@H]1CN(C2(C(=O)N3CCSCC3)Cc3ccccc3C2)C[C@H](C)O1` ?
1.613

// query: CC1(C(=O)N2CCSCC2)CNCCO1 (stereo not given)
81.85

Follow-up entry: `CC(C)(C)NC(=O)CNC(=O)c1cccnc1Oc1cccnc1`
-29.24

How about this compound: `O=C(N1CCSCC1)C1(O)Cc2ccccc2C1`
1.421

Same question for `Cc1ncc(COc2cccc3c2NC(=O)CO3)s1` please.
-10.58

Repeat with `O=C(NC1CC(F)(F)C1)[C@]12COC[C@H]1CN(Cc1ccsc1)C2`
-6.897

====

Test system: Wolbachia pipientis
Assay Comment: Anti-Wolbachia Cell-Based Screen
Format: functional
Design: scale not given: in the data most compounds retested in dose-response had high values
Condition: 5 µM
The whole screen tested about 48,000 compounds, of which about 13,000 (27%) showed an effect of 50% or more. This is one part of the list.
Property Measured: Percent Effect
Numeric answer plus unit only.

Entry Cc1cnn(CC2CCCN2CC(=O)N(C)Cc2ccco2)c1 (centres undefined) has what Percent Effect?
-7.327%

`CS(=O)(=O)NC1(CCc2ccc(NC(=O)C3CC3)nc2)CCCCC1` ?
95.32%

Do the same for O=C(c1ccc(C2CCCO2)s1)N1CCCOCC1 (centres undefined) please
7.048%

How about `CCCn1ccnc1-c1nccn1CCN(C)C` ?
-8.104%

Note, next up: `Cc1nc(C(C)C)sc1C(=O)N(C)Cc1nc(-c2ccccn2)no1`
-7.076%

And for `CC(=O)Nc1ccc(CCC2(NC(=O)C3CC3)CCCCC2)cn1` ?
53.79%

// next record CC(=O)Nc1ccc(CCC2(NC(=O)C3CCCO3)CCCCC2)cn1 (centres undefined)
144.1%

Same thing, different compound: CN1CCCCC1c1nc(Cc2cccc(F)c2)no1 (centres undefined)
-5.711%

Next compound up: `COc1cccc(CN2C[C@H]3CCNCC[C@H]3S2(=O)=O)c1`
18.94%

Here is the next compound: `COc1ncc(-c2nccn2CCN(C)C)cn1`
-13.85%

Would you kindly repeat that for CN(C)C(=O)C1CCCN1CCCNC(=O)c1ccccc1F (centres undefined) ?
12.21%

One more compound: CCC(C)(N)c1nc(C(C)C)cc(=O)[nH]1.Cl (centres undefined)
-2.59%

What do we get for `COCc1ncc(-c2nccn2CCN(C)C)cn1` ?
3.066%

What about `CC(C)CC(=O)Nc1cc(C(=O)N(C)C(C)C)ccc1Cl` ?
-13.72%

Further, for `CCN(CC)C(=O)c1ccc(Cl)c(NC(=O)c2cnc(C)cn2)c1` ?
101.4%

Next record, please: `Cn1ccnc1SCCNc1ccnc(C(F)(F)F)n1`
2.447%

Field entry: Cc1ccc(NC(=O)C2CCCN2C(=O)C2CC2)nc1 (centres undefined)
4.832%

Next entry: `Cl.Cl.Cn1cnc2c(N3CCCC3)nc(C3CCNCC3)cc21`
-10.47%

What would you report for `CNC(=O)C(C)(C)N1CCC[C@H]1C(=O)NCCN(C)C.Cl` ?
11.97%

Try the compound `Cc1cc(N(C)CCN(C)C2CCCC2)n2nc(C)cc2n1`
9.952%

Item: `CCCn1ccnc1-c1nccn1CCn1cnnc1`
87.43%

Same for `CC(=O)N1CCC(c2c(CN(C)C)cnc3cc(C)nn23)CC1`
74.12%

Again, but for O=C1CN(C(=O)C2CCOC2)CCN1Cc1ccc(Cl)cc1 (centres undefined)
-11.12%

Input `COc1ncccc1-c1cc(C(=O)NC2CC2)ccn1`
1.183%

Do the same for CC(C)CC(C)NC1CCN(c2cccc(-c3cscn3)c2)CC1 (centres undefined) please
-3.86%

One more compound: `COCc1ncc(-c2nccn2CCn2cnnc2)cn1`
95.42%

Record: `CCCn1ccnc1-c1nccn1CCC(N)=O`
-22.61%

Now this one: COCCN1CCCCC12CC(=O)N(c1ccccc1OC)C2.O=C(O)C(F)(F)F (centres undefined)
105%

Next: `CCCSc1ncc(-c2nccn2CCO)cn1`
-55.57%

Next record, please: CCSCc1ccnc(NC(=O)C2CCCO2)c1 (centres undefined)
2.987%

Lookup `CCN(CC)C(=O)c1ccc(Cl)c(NC(=O)c2csnn2)c1`
102.3%

And then `O=C(O)[C@@H]1CN(CCOCCO)C[C@H]1c1ccccc1` , what is it?
-10.46%

Note, next up: `CCc1noc(C2CCN(C(=O)CCn3nc(C)cc3C)CC2)n1`
2.839%

Next: `O=S(=O)(NCCc1c[nH]c2ccc(F)cc12)C1CCOCC1`
-14.21%

// next record O=C(c1ccnc(C2CCNCC2)c1)N1CCCC(CO)C1 (centres undefined)
100.1%

Then what about the compound `CC[C@H](C)Cn1nc(C2CCNCC2)n(Cc2ccccc2)c1=O` ?
-2.943%

Now the compound `COc1ccc(F)c(-c2cc(C(=O)NC3CC3)ccn2)c1`
-1.956%

What do you have for `Cc1cc2ncc(CN(C)C)c(C3CCN(C)CC3)n2n1` ?
76.44%

Entry N#CC1C(=O)Nc2c(cnn2C2CCCC2)C12CCCCC2 (centres undefined) please
30.08%

Item: `CCN(CC)C(=O)c1ccc(Cl)c(NC(=O)c2cc[nH]n2)c1`
48.61%

Field entry: `Cl.O=C(c1ccnc(C2CCNCC2)c1)N1CCCOCC1`
107.9%

Likewise for `Cl.O=C(NC1CCCC1)c1ccnc(C2CCNCC2)c1` ?
105.6%

Check `CCN(CC)c1ccc(CNC(=O)c2cnc(C)cn2)cn1` too.
0.4576%

Now the same for `COCC(=O)N1CCCC2(CCN(CCN3CCCC3)CC2)C1.O=C(O)C(F)(F)F.O=C(O)C(F)(F)F`
18.87%

====

Tested on: Wolbachia pipientis
Assay Comment: Anti-Wolbachia Cell-Based Screen
Format: functional
Set-up: scale not given: in the data most compounds retested in dose-response had high values
Condition: 5 µM
About 13,000 (27%) of roughly 48,000 compounds showed an effect of 50% or more. Some of the results follow.
Give measured Percent Effect for each item. Keep answers brief.
Provide the reading as a plain figure in %.

Given the compound `CCCn1nccc1C(=O)N1CCN(C(=O)C2CC2)[C@@H]2CS(=O)(=O)C[C@@H]21` , what is its reported Percent Effect?
17.33

Follow-up entry: Cc1cccc(-c2nnn3c2COC(CNS(=O)(=O)C2CC2)C3)c1 (stereo not given)
-1.824

Input `CN1CCN(CC2CC2)C(=O)c2cnc(N3CCOCC3)nc21`
128

And what about the compound `CN1CCN(CC2CC2)C(=O)c2cnc(N3CC[C@@H](O)C3)nc21` ?
-2.603

Also need CNC(=O)C1CN(c2ccc(F)cc2)CCN1.Cl (stereo not given) , thanks.
158.3

Follow-up entry: `Cl.Fc1ccccc1Cn1c(C2CCNCC2)cc2cccnc21`
115.9

Another compound to look at: CC(Cn1cccn1)C(=O)N1CCC(Nc2cccnn2)CC1 (stereo not given)
-6.529

Now try `Cl.Fc1ccccc1CNc1ccnc(C2CCNCC2)c1` .
96.16

// query: COCC(c1ccccn1)N(C)C(=O)c1cc(-c2ccc(O)cc2)n[nH]1 (stereo not given)
-10.51

For `O=C1N(c2ccc(Cl)cc2)Cc2n[nH]c(=O)n21` then?
3.53

Ok, now `O=C(CNC(=O)c1ccc(Cl)cc1)Nc1nccs1`
62.52

Then what about the compound `O=C(c1ccc(-c2cnco2)cc1)N1CCC(Nc2cccnn2)CC1` ?
107

Consider next the compound `Cc1cnc(CN2CCN(c3ccnc(-c4ccccc4)n3)CC2)cn1` in the same way.
144.2

Now the compound `CN1CCN(CC2CC2)C(=O)c2cnc(N3CCC(CO)CC3)nc21`
85.31

Again, but for `Cc1cccc2nc(C(=O)N3CCC(Nc4cccnn4)CC3)cn12`
-6.08

Then what about the compound CCCn1ncnc1C(C)NC(=O)C1CCN(C(=O)C2CC2)CC1 (stereo not given) ?
-8.242

Please give the result for Cl.NC(=O)C1CN(c2ccc(F)cc2)CCN1 (stereo not given) too.
113.5

Proceed to `O=C(CNC(=O)c1cc(Cl)ccn1)Nc1nccs1`
-9.837

What would you report for `CNC(=O)C1CCN(C(=O)c2ccn(-c3ccc(F)cc3)n2)CC1` ?
-2.487

Queued: CCCn1nccc1-c1nccnc1CC1CCN(C(C)=O)C1 (stereo not given)
94.67

Follow-up entry: `Cc1noc(C)c1CN1CCN(Cc2nccn2C)CC1`
-9.314

Queued: `Cc1noc(C)c1CN1CCN(c2ccnc(-c3ccccc3)n2)CC1`
94.83

Repeat with CN(C)CCOCC1CN(C(=O)c2cscn2)Cc2ccnn2C1 (stereo not given)
-0.6425

Moving on to the next compound: `Cn1cnc2c1CCN(c1ccnc(-c3ccccc3)n1)C2`
-10.53

Same question for `CN1CCN(c2cnn(CCn3cccn3)c(=O)c2)CC1` please.
1.729

// next record `CNC(=O)c1ccc(C(=O)N2CCC(Nc3cccnn3)CC2)cn1`
119

Try this compound next: `Cl.Cl.O[C@@H]1C[C@@](CNCc2ccc(Cl)cc2)(COc2cccnc2)C[C@@H]1O`
-11.4

Proceed to CCc1nccn1C1CCCN(C(=O)c2cnc3onc(C)c3c2)C1 (stereo not given)
-19.2

Moving on to the next compound: CCCN(C(=O)CNC1CCc2ncnn2C1)C1=CCCCC1 (stereo not given)
7.464

Note, next up: CCCn1nccc1C(=O)N1CCN(C2CCc3ccccc3C2)CC1 (stereo not given)
-8.816
